Exercise: state measured Caco2 Papp (10^-6 cm/sec) for each of the compounds provided.
- Test system: Caco-2 cells
- EXPERIMENTAL_DETAILS: Membrane permeability test using Caco-2 cells with preincubation
- Type: in vitro ADME
- APPLIED_CONDITIONS: Caco-2
- Description: The permeability coefficient (Caco-2 Papp (cm/sec)) is calculated using a numerical expression 1. [Expression 1] Papp = (1)/(C1 (0) × S) × (dQ)/(dt) [formula] dQ/dt represents the permeation rate of drug (the amount of drug appearing on the Basal side per unit time), S represents the total surface area of cells, and C1(0) represents the concentration of drug added on the Apical side. […]
Starred links: 1 amine or outer side, 2 acyl side, 3 side chain; linkers in the order of their positions; H or OH if unused. Non-standard residues stand in square brackets, D forms with d. Residues, ends and D or L forms follow the SMILES beside them. *: point of attachment. NMedβ3hAla = C[C@H](CC(=O)[*:2])N(C)[*:1]; NMeF = CN[C@@H](Cc1ccccc1)C(=O)O; NMeGABA = CN(CCCC(=O)[*:2])[*:1]; NMeI = CC[C@H](C)[C@H](NC)C(=O)O; NMeβAla = CN(CCC(=O)[*:2])[*:1]; NMeL = CN[C@@H](CC(C)C)C(=O)O; NMeA = CN[C@@H](C)C(=O)O; Abu = CC[C@H](N)C(=O)O; βAla = NCCC(=O)O; Sar = CNCC(=O)O; tBu = CC(C)(C)*

I would be grateful if you could provide Caco2 Papp (10^-6 cm/sec) for each of the following entries.
1. CC[C@@H]1NC(=O)[C@H](CC(C)C)N(C)C(=O)CCNC(=O)[C@H](Cc2ccccc2)N(C)C(=O)[C@H](Cc2ccccc2)N(C)C(=O)CNC(=O)[C@H]([C@@H](C)CC)NC(=O)[C@H](CC(C)C)N(C)C(=O)CCCN(C)C(=O)C[C@@H](C)N(C)C(=O)[C@H](CC(C)C)NC(=O)[C@H]([C@@H](C)CC)NC(=O)[C@H](C)N(C)C(=O)[C@H](C(C)C)NC1=O [pd062] (cyclo([Abu]V[NMeA]IL[NMedβ3hAla][NMeGABA][NMeL]IG[NMeF][NMeF][βAla][NMeL]))
2. CC[C@H](C)[C@H]1C(=O)N[C@@H](CC(C)C)C(=O)N(C)CC(=O)N(C)[C@@H](CC(C)C)C(=O)N[C@@H](CC(C)C)C(=O)N(C)[C@H](C)CC(=O)N(C)[C@@H](CC(C)C)C(=O)N(C)CCC(=O)N(C)[C@@H](CC(C)C)C(=O)N[C@@H](COC(C)(C)C)C(=O)N(C)[C@@H](Cc2ccccc2)C(=O)N(C)CCC(=O)N(C)[C@@H](Cc2ccccc2)C(=O)N1C [pd144] (cyclo(L[Sar][NMeL]L[NMedβ3hAla][NMeL][NMeβAla][NMeL]S(tBu)[NMeF][NMeβAla][NMeF][NMeI]))

**A:**
<0.11 10^-6 cm/sec
1.28 10^-6 cm/sec

---

- EXPERIMENTAL_DETAILS: Metabolic stability test: liver microsomal stability assay
- Format: in vitro ADME, mouse
- APPLIED_CONDITIONS: mouse liver microsomes 0.5 mg protein/mL, compound 1 µM, absence of NADPH
Positions of bridges follow the written chain, without caps; N, C: chain ends. Non-standard residues stand in square brackets, D forms with d. Residues, ends and D or L forms follow the SMILES beside them. *: point of attachment. NMeF = CN[C@@H](Cc1ccccc1)C(=O)O; NMeI = CC[C@H](C)[C@H](NC)C(=O)O; NMeL = CN[C@@H](CC(C)C)C(=O)O; NMeV = CN[C@H](C(=O)O)C(C)C; d(β3hA) = C[C@@H](N)CC(=O)O; NMeAbu = CC[C@H](NC)C(=O)O; NMeA = CN[C@@H](C)C(=O)O; Piperidide = C1CCN(*)CC1; Abu = CC[C@H](N)C(=O)O; NBuGly = CCCCNCC(=O)O; Sar = CNCC(=O)O; tBu = CC(C)(C)*
REPORTED_METRIC: Mouse Hepatic Microsome CLh,int NADPH(-) (µL/min/mg Protein)
Answers are plain numbers, in µL/min/mg Protein.

Use these answered entries as a reference point.
**Q:** // fetch Mouse Hepatic Microsome CLh,int NADPH(-) given entry CC[C@@H]1NC(=O)[C@H](C(C)C)N(C)C(=O)[C@H](CC(C)C)NC(=O)[C@H](CC(C)C)N(C)C(=O)[C@H]([C@@H](C)O)NC(=O)CN(C)C(=O)[C@H]([C@@H](C)CC)NC(=O)[C@H](Cc2ccccc2)N(C)C(=O)[C@H](CC(C)C)N(C)C(=O)C[C@@H](C(=O)N2CCCCC2)NC(=O)[C@H](Cc2ccccc2)N(C)C(=O)[C@H](COC(C)(C)C)NC(=O)[C@@H]2CCCN2C(=O)[C@H]([C@@H](C)CC)NC1=O [pd031] ([NMeL][NMeF]I[Sar]T[NMeL]L[NMeV][Abu]IPS(tBu)[NMeF]D-Piperidide; lactam N-14)
**A:** 32.3

**Q:** // fetch Mouse Hepatic Microsome CLh,int NADPH(-) given entry CC[C@H](C)[C@H]1C(=O)N[C@@H](CC(C)C)C(=O)N(C)[C@@H](CC(C)C)C(=O)N2CCC[C@H]2C(=O)N(C)[C@@H](C(C)C)C(=O)N[C@H](C(=O)N2CCCCC2)CC(=O)N[C@@H](C)C(=O)N(C)[C@@H](CC(C)C)C(=O)N[C@@H](C(C)C)C(=O)N(C)[C@@H](Cc2ccccc2)C(=O)N(C)[C@@H](CC(C)C)C(=O)N[C@@H](C)C(=O)N(C)[C@@H](Cc2ccccc2)C(=O)N[C@@H]([C@@H](C)O)C(=O)N1C [pd036] (A[NMeL]V[NMeF][NMeL]A[NMeF]T[NMeI]L[NMeL]P[NMeV]D-Piperidide; lactam N-14)
**A:** 25.7

**Q:** // fetch Mouse Hepatic Microsome CLh,int NADPH(-) given entry CC[C@H](C)[C@@H]1NC(=O)[C@H](CC(C)C)N(C)C(=O)[C@H](CC(C)C)NC(=O)[C@H](C)N(C)C(=O)C[C@@H](C)NC(=O)[C@H](CC(C)C)NC(=O)[C@H](CC(C)C)N(C)C(=O)CN(C)C(=O)[C@H](C(C)C)NC(=O)[C@H]([C@@H](C)CC)N(C)C(=O)[C@H](CC(C)C)N(C)C(=O)[C@H](C)NC(=O)[C@H](Cc2ccccc2)N(C)C1=O [pd127] (cyclo(A[NMeL][NMeI]V[Sar][NMeL]L[d(β3hA)][NMeA]L[NMeL]I[NMeF]))
**A:** 28.0

# next molecule below
**Q:** // fetch Mouse Hepatic Microsome CLh,int NADPH(-) given entry CCCCN1CC(=O)N(C)[C@@H](CC)C(=O)N[C@@H](CC(C)C)C(=O)N[C@H](C(=O)N2CCCCC2)CC(=O)N(C)[C@@H](C)C(=O)N[C@@H]([C@@H](C)CC)C(=O)N(C)[C@@H](Cc2ccccc2)C(=O)N(C)[C@@H](CC(C)C)C(=O)N[C@@H](C(C)C)C(=O)N(C)CC(=O)N[C@@H](CC(C)C)C(=O)N(C)[C@@H](Cc2ccccc2)C(=O)N(C)[C@@H](C)C(=O)N[C@@H](CC(C)C)C1=O [pd018] ([NMeA]I[NMeF][NMeL]V[Sar]L[NMeF][NMeA]L[NBuGly][NMeAbu]LD-Piperidide; lactam N-14)
**A:** 34.1

Values compiled from patent EP4768499A1.
